- Procedure Text: PK interaction of the compound of Formula I-1, febuxostat and colchicine (PK parameters in plasma)
- Measurement Conditions: human, plasma, oral, AUCss of the compound of Formula I-1, geometric mean, combined administration with febuxostat 80 mg (colchicine background)
Endpoint: AUC (ng·h/mL)
Please respond with the number in ng·h/mL and leave the unit unwritten.

Consider the molecule O=C([O-])C1(Sc2ccnc3ccc(Br)cc23)CCC1.[Na+] [compound of Formula I-1] and give its measured AUC.
14700
